conditions: in propionic acid, 318.15 K
Quantity Name: solubility (mole fraction)

Please report the recorded solubility (mole fraction) for Nc1c([N+](=O)[O-])c2no[n+]([O-])c2c2no[n+]([O-])c12 .
7.63e-05

----------
details: in toluene, 303.15 K
Quantity Name: solubility (mole fraction)
I only need the number, thanks.

What value of solubility (mole fraction) has been recorded for this entry: Nc1c([N+](=O)[O-])c2no[n+]([O-])c2c2no[n+]([O-])c12
2.45e-05

----------
details: in propionic acid, 303.15 K
Quantity Name: solubility (mole fraction)
Provide a numeric answer; units are not to be included.

solubility (mole fraction) for Nc1c([N+](=O)[O-])c2no[n+]([O-])c2c2no[n+]([O-])c12 ?
3.97e-05

----------
details: in dichloromethane, 288.15 K
Quantity Name: solubility (mole fraction)
Answer with a number only.

What does the data say about its solubility (mole fraction)? Entry: Nc1c([N+](=O)[O-])c2no[n+]([O-])c2c2no[n+]([O-])c12
1.37e-05

----------
settings: in 1,2-dichloroethane, 298.15 K
Quantity Name: solubility (mole fraction)
I only need the number, thanks.

Param item = Nc1c([N+](=O)[O-])c2no[n+]([O-])c2c2no[n+]([O-])c12 ; retrieve measured solubility (mole fraction).
4.41e-05

----------
conditions: in cyclohexanone, 328.15 K
Quantity Name: solubility (mole fraction)
Lab note: jot down the number only; don't add units.

Any idea what solubility (mole fraction) was measured for Nc1c([N+](=O)[O-])c2no[n+]([O-])c2c2no[n+]([O-])c12 ?
0.00409

----------
conditions: in DMSO, 313.15 K
Quantity Name: solubility (mole fraction)
The answer should be written as a number, with no unit following it.

Need solubility (mole fraction), item Nc1c([N+](=O)[O-])c2no[n+]([O-])c2c2no[n+]([O-])c12
0.0217

----------
settings: in cyclohexanone, 313.15 K
Quantity Name: solubility (mole fraction)
Lab note: record the figure alone, no unit after it.

Which solubility (mole fraction) value belongs to Nc1c([N+](=O)[O-])c2no[n+]([O-])c2c2no[n+]([O-])c12 ?
0.00295

----------
conditions: in 1,2-dichloroethane, 293.15 K
Quantity Name: solubility (mole fraction)
Number, no unit, nothing else.

# solubility (mole fraction) lookup, item Nc1c([N+](=O)[O-])c2no[n+]([O-])c2c2no[n+]([O-])c12
3.64e-05

----------
details: in 1,2-dichloroethane, 318.15 K
Quantity Name: solubility (mole fraction)
Output spec: single numeric token, no unit.

What does the data say about its solubility (mole fraction)? Entry: Nc1c([N+](=O)[O-])c2no[n+]([O-])c2c2no[n+]([O-])c12
8.9e-05

----------
settings: in ethanol, 328.15 K
Quantity Name: solubility (mole fraction)
Kindly provide the number alone.

Consider the compound Nc1c([N+](=O)[O-])c2no[n+]([O-])c2c2no[n+]([O-])c12 and give its measured solubility (mole fraction).
4.92e-05

----------
settings: in 1,2-dichloroethane, 288.15 K
Quantity Name: solubility (mole fraction)
Number, no unit, nothing else.

Consider the compound Nc1c([N+](=O)[O-])c2no[n+]([O-])c2c2no[n+]([O-])c12 and give its measured solubility (mole fraction).
2.98e-05

----------
details: in 1,2-dichloroethane, 323.15 K
Quantity Name: solubility (mole fraction)
Give only the figure.

What value of measured solubility (mole fraction) is listed for Nc1c([N+](=O)[O-])c2no[n+]([O-])c2c2no[n+]([O-])c12 ?
0.000105

----------
details: in o-xylene, 313.15 K
Quantity Name: solubility (mole fraction)

I would be grateful if you could share the reported solubility (mole fraction) for Nc1c([N+](=O)[O-])c2no[n+]([O-])c2c2no[n+]([O-])c12 .
8.74e-05

----------
details: in methanol, 313.15 K
Quantity Name: solubility (mole fraction)
Please respond with just the number, no unit label.

Query (compound): Nc1c([N+](=O)[O-])c2no[n+]([O-])c2c2no[n+]([O-])c12 ; field requested: solubility (mole fraction)
5.01e-05

----------
conditions: in cyclohexanone, 288.15 K
Quantity Name: solubility (mole fraction)
Lab note: write the figure by itself, no unit.

Which solubility (mole fraction) is reported for this compound? Nc1c([N+](=O)[O-])c2no[n+]([O-])c2c2no[n+]([O-])c12
0.0018

----------
details: in ethyl acetate, 333.15 K
Quantity Name: solubility (mole fraction)
Just the number, please, no unit after it.

Report solubility (mole fraction) for Nc1c([N+](=O)[O-])c2no[n+]([O-])c2c2no[n+]([O-])c12 please.
0.000681

----------
conditions: in propionic acid, 323.15 K
Quantity Name: solubility (mole fraction)
// return a plain number; no unit text

// solubility (mole fraction) lookup, key: Nc1c([N+](=O)[O-])c2no[n+]([O-])c2c2no[n+]([O-])c12
9.37e-05

----------
conditions: in acetone, 303.15 K
Quantity Name: solubility (mole fraction)
Please reply with the value in numeric form only.

GET /values?readout=solubility (mole fraction)&item= Nc1c([N+](=O)[O-])c2no[n+]([O-])c2c2no[n+]([O-])c12
0.00109

----------
details: in o-xylene, 323.15 K
Quantity Name: solubility (mole fraction)
Quick one: just the number, no unit, thanks!

Entry Nc1c([N+](=O)[O-])c2no[n+]([O-])c2c2no[n+]([O-])c12 : reported solubility (mole fraction) = ?
0.000137

----------
conditions: in acetic acid, 333.15 K
Quantity Name: solubility (mole fraction)
Answer with a number only.

Fill in the blank: the reported solubility (mole fraction) of Nc1c([N+](=O)[O-])c2no[n+]([O-])c2c2no[n+]([O-])c12 is ____.
0.000271

----------
conditions: in acetic acid, 303.15 K
Quantity Name: solubility (mole fraction)
Would you mind answering with just the numeric figure?

Give the measured solubility (mole fraction) of Nc1c([N+](=O)[O-])c2no[n+]([O-])c2c2no[n+]([O-])c12 .
0.000112

----------
conditions: in ethanol, 293.15 K
Quantity Name: solubility (mole fraction)
I only need the number, thanks.

# input compound: Nc1c([N+](=O)[O-])c2no[n+]([O-])c2c2no[n+]([O-])c12 ; wanted: its solubility (mole fraction)
8.94e-06

----------
details: in DMF, 288.15 K
Quantity Name: solubility (mole fraction)
Please give the numeric answer without any surrounding text.

Param item = Nc1c([N+](=O)[O-])c2no[n+]([O-])c2c2no[n+]([O-])c12 ; retrieve measured solubility (mole fraction).
0.00618

----------
conditions: in acetic acid, 328.15 K
Quantity Name: solubility (mole fraction)
Reply: number alone, nothing else.

May I ask what solubility (mole fraction) has been recorded for Nc1c([N+](=O)[O-])c2no[n+]([O-])c2c2no[n+]([O-])c12 ?
0.000237

----------
conditions: in dichloromethane, 293.15 K
Quantity Name: solubility (mole fraction)
The reply should be a number, written without any unit.

Consider the molecule Nc1c([N+](=O)[O-])c2no[n+]([O-])c2c2no[n+]([O-])c12 and give its measured solubility (mole fraction).
1.73e-05

----------
conditions: in o-xylene, 298.15 K
Quantity Name: solubility (mole fraction)
Number only, no unit.

Reported solubility (mole fraction), compound Nc1c([N+](=O)[O-])c2no[n+]([O-])c2c2no[n+]([O-])c12 : ____
4.14e-05

----------
conditions: in methanol, 288.15 K
Quantity Name: solubility (mole fraction)

Fill in: solubility (mole fraction) of Nc1c([N+](=O)[O-])c2no[n+]([O-])c2c2no[n+]([O-])c12 is ___
1.44e-05

----------
details: in DMF, 333.15 K
Quantity Name: solubility (mole fraction)
Field format: numeric only.

Report solubility (mole fraction) for Nc1c([N+](=O)[O-])c2no[n+]([O-])c2c2no[n+]([O-])c12 please.
0.0273

----------
settings: in DMSO, 328.15 K
Quantity Name: solubility (mole fraction)
Would you mind answering with just the numeric figure?

Look up solubility (mole fraction): Nc1c([N+](=O)[O-])c2no[n+]([O-])c2c2no[n+]([O-])c12
0.0327

----------
settings: in ethyl acetate, 303.15 K
Quantity Name: solubility (mole fraction)

Item under review: Nc1c([N+](=O)[O-])c2no[n+]([O-])c2c2no[n+]([O-])c12 . Reported solubility (mole fraction)?
0.000321

----------
details: in ethanol, 313.15 K
Quantity Name: solubility (mole fraction)

Recorded solubility (mole fraction) of Nc1c([N+](=O)[O-])c2no[n+]([O-])c2c2no[n+]([O-])c12 , please.
2.47e-05

----------
conditions: in o-xylene, 318.15 K
Quantity Name: solubility (mole fraction)
Note: the reply should be a number with no unit written.

If you can, please state the reported solubility (mole fraction) value of Nc1c([N+](=O)[O-])c2no[n+]([O-])c2c2no[n+]([O-])c12 .
0.000109
